System: CP217
EXPERIMENT_DESCRIPTION: qHTS profiling for inhibitors of Plasmodium falciparum proliferation (AID 504749); further: nearly all actives have a fitted effect of over 60% in size; further: potency means the concentration at half of the fitted maximal effect
SETUP_CONDITIONS: P. falciparum in erythrocytes, SYBR Green DNA, 72 h; series mostly up to 28.7 µM
Results filed as inconclusive are left out. Calls of active or inactive are those of the source. The call rests on the fitted dose curve; in most records, active means well fitted inhibition curve with a large enough effect; inconclusive means small, poorly fitted or top-dose-only effect; inactive means flat fitted curve, though single readings scatter.
ASSAY_ENDPOINT: Potency

Worked examples follow.
{"columns": ["COMPOUND", "Potency"],
 "data": [
  ["Cc1cc(O)c(C(C)C)cc1Cl", "inactive"],
  ["Cc1ccc(C(=O)C(C)CN2CCCCC2)cc1 (stereo not given)", "inactive"],
  ["CN(C)CCCOc1nn(Cc2ccccc2)c2ccccc12", "inactive"],
  ["CCCCc1nc(Cl)c(CO)n1Cc1ccc(-c2ccccc2-c2nn[nH]n2)cc1", "12.6 µM (active)"]
]}

Per the records, this compound ( NC(=NCCCCCCN=C(N)/N=C(\N)Nc1ccc(Cl)cc1)/N=C(\N)Nc1ccc(Cl)cc1 ) has Potency equal to 2 µM (active)

---

System: Tov112D
EXPERIMENT_DESCRIPTION: Primary qHTS to identify gynecologic anti-cancer compounds using libraries of approved drugs and bioactive compounds (AID 1345084); further: nearly all actives have a fitted effect of over 55% in size
SETUP_CONDITIONS: Gynecologic cancer cell panel viability, ATPlite luminescence, 48 h; series mostly up to 57.5 µM
Results filed as inconclusive are left out. Activity calls are given as the source filed them. Calls come from the whole dose curve; as a rule, active = well fitted cell-killing curve with a large enough effect; inconclusive = small, poorly fitted or top-dose-only effect, or effect the other way; inactive = flat fitted curve, though single readings scatter.
A correct response names exactly one class from active, inactive

{"columns": ["MOLECULE", "GROUP"],
 "data": [
  ["c1ccc(CNCCNCc2ccccc2)cc1", "inactive"],
  ["CCN(CCCCOC(=O)c1ccc(OC)c(OC)c1)C(C)Cc1ccc(OC)cc1 (centres undefined)", "inactive"],
  ["O=C1OC2(c3ccc(O)cc3Oc3cc(O)ccc32)c2ccccc21", "inactive"],
  ["NC[C@H]1O[C@H](O[C@H]2[C@H](O)[C@@H](O[C@H]3O[C@H](CO)[C@@H](O)[C@H](N)[C@H]3O)[C@H](N)C[C@@H]2N)[C@H](N)[C@@H](O)[C@@H]1O", "inactive"],
  ["CC(=O)CC(c1ccc([N+](=O)[O-])cc1)c1c(O)c2ccccc2oc1=O (centres undefined)", "inactive"]
]}

Then this molecule:
Just curious, what result did CCOC(=O)n1ccn(C)c1=S get here?
inactive

---

TESTED_TARGET: Cytochrome P450 2C9 (Homo sapiens)
EXPERIMENT_DESCRIPTION: Cytochrome P450 family 2 subfamily C member 9 (CYP2C9) small molecule antagonists: luciferase biochemical (cell-free) qHTS assay (AID 1645842); further: nearly all actives have a fitted effect of over 55% in size
SETUP_CONDITIONS: P450-Glo CYP2C9 enzyme assay, luciferin luminescence; series mostly up to 57.4 µM
Inconclusive results are not listed. The source made the active and inactive calls. Calls come from the whole dose curve; as a rule, active = well fitted inhibition curve with a large enough effect in the repeat runs; inconclusive = weak or mixed curves; inactive = no such curve, though single readings can be large or run the other way.
A correct response names exactly one class from active, inactive

# count of solved cases: 5
{"columns": ["MOLECULE", "GROUP"],
 "data": [
  ["CN1CCCC(CC2c3ccccc3Sc3ccccc32)C1 (stereo unspecified)", "inactive"],
  ["NCCc1ccn[nH]1", "inactive"],
  ["CCN(CC)CCNC(=O)COc1ccc(Cl)cc1", "inactive"],
  ["C[C@H](CCC(=O)O)[C@H]1CC[C@H]2[C@@H]3C(=O)C[C@@H]4CC(=O)CC[C@]4(C)[C@H]3CC(=O)[C@]12C", "inactive"],
  ["OC(CCN1CCCCC1)(c1ccccc1)c1ccccc1", "inactive"]
]}

Just curious, what result did NCCCC[C@H](N[C@@H](CCc1ccccc1)C(=O)O)C(=O)N1CCC[C@H]1C(=O)O get here?
inactive

Just curious, what result did CC(=O)O[C@]1(C(C)=O)CC[C@H]2[C@@H]3C[C@H](C)C4=CC(=O)CC[C@]4(C)[C@H]3CC[C@@]21C get here?
active

Just curious, what result did O=S1(=O)c2cccc3cccc(c23)N1CCCN1CCN(c2ccc(F)cc2)CC1 get here?
inactive

Just curious, what result did CCN(CC)C(=O)N1CCN(C)CC1 get here?
inactive

Just curious, what result did Cc1cc(O)c(C(C)C)cc1Cl get here?
active

Just curious, what result did CC1=C(C(=O)OC(C)C)C(c2cccc([N+](=O)[O-])c2)C(C(=O)OC2CN(C(c3ccccc3)c3ccccc3)C2)=C(N)N1 (stereo unspecified) get here?
active
